Target: full length (mature) cynomolgus monkey TSLP, recombinant (cynomolgus monkey)
Assay: SPR, biotinylated TSLP on SA chip (Biacore 4000)
So I've got a bunch of binders here, and I need their Kd values.
Give bare numbers, in nM.

The cases that follow already have their Kd on record.
INSERT INTO assay_data (binder, result_value) VALUES
  ('DOM30h-440-55 (protein) VL: DIQMTQSPSSLSASVGDRVTITCRASRPIRNWLDWYQQKPGKAPKLLIWGASHLQSGVPSRFSGSGSGTDFTLTISSLQPEDFATYYCVQIGEDPVTFGQGTKVEIKR', 1.61),
  ('DOM30h-440-60 (protein) VL: DIQMTQSPSSLSASVGDRVTITCRASRPIRNWLDWYQQKPGKAPKLLIWGASHLQSGVPSRFSGSGSGTDFTLTISSLQPEDFATYYCIQFGEDPVTFGQGTKVEIKR', 7.81);

Go through the list and state Kd for each entry.
1. DOM30h-440-56 (protein) VL: DIQMTQSPSSLSASVGDRVTITCRASRPIRNWLDWYQQKPGKAPKLLIWGASHLQSGVPSRFSGSGSGTDFTLTVSSLQPEDFATYYCMQIGEDPVTFGQGTKVEIKR
2. DOM30h-440-64 (protein) VL: DIQMTQSPSSLSASVGDRVTITCRASRPIRNWLDWYQQKPGKAPKLLIWGASHLQSGVPSRFSGSGSGTDFTLTISSLQPEDFATYYCLQIGEDPVTFGQGTKVEIKR
3. DOM30h-440-63 (protein) VL: DIQMTQSPSSLSASVGDRVTITCRASRPIRNWLDWYQQKPGKAPKLLIWGASHLQSGVPSRFSGSGSGTDFTLTISSLQPEDFATYYCMQIGSDPVTFGQGTKVEIKR

1. 2.97
2. 4.29
3. 5.98
